system: Fibroblast; assay: Multiplex assay against human fibroblast; assay type: toxicity, cell-based; details: 12 h, 10 µM, compound concentration 10 uM, replicate 1
Below: a set of entries, each annotated with reported Population Apoptotic (%).
Use % as the unit, but write only the number.

>>> reported_measurement("CCOC(=O)CCNc1cc(N2CCc3ccccc3CC2)nc(-c2ccccn2)n1")
68

Incoming: Given the entry CC(C)C[C@H](NC(=O)[C@H](Cc1ccccc1)NC(=O)CNC(=O)CNC(=O)[C@@H](N)Cc1ccc(O)cc1)C(=O)O , report its measured Population Apoptotic (%).
Outgoing: 76

Incoming: Also check Cc1ccc(NC(=O)Nc2cc(C(F)(F)F)ccc2F)cc1Nc1ccc2c(c1)NC(=O)/C2=C\c1ccc[nH]1
Outgoing: 66

Incoming: Also check Cl.Cn1c2c(c3ccc(Cl)c(Cl)c31)C(C#N)C1(CCNCC1)NC2=O (stereo not given)
Outgoing: 64

Incoming: Also check CC[C@H](Nc1ncnc2[nH]cnc12)c1nc2cccc(F)c2c(=O)n1-c1ccccc1
Outgoing: 58

###

tested on: Fibroblast; assay: Multiplex assay against human fibroblast; assay type: toxicity, cell-based; conditions: 12 h, 1 µM, compound concentration 1 uM, replicate 2
Below: a set of entries, each annotated with reported Population Membrane Permeable-Phenotype (%).
Use % as the unit, but write only the number.

>>> reported_measurement("CC(/C=C1\\SC(=S)N(CCCC(=O)Nc2ccc(C(=O)O)c(O)c2)C1=O)=C\\c1ccccc1")
7
>>> reported_measurement("CCCCN(CC)c1nc(C)nc2c1c(C)cn2-c1c(C)cc(C)cc1C.Cl")
5
>>> reported_measurement("CCOC(=O)CCNc1cc(N2CCc3ccccc3CC2)nc(-c2ccccn2)n1")
0

Incoming: Given the entry Cc1c(Nc2ccc(S(=O)(=O)N3CCN(C)CC3)cc2F)nc2ccc(Nc3cnn(C4CC4)c3)cn2c1=O , report its measured Population Membrane Permeable-Phenotype (%).
Outgoing: 55

Incoming: Also check CC[C@H](Nc1ncnc2[nH]cnc12)c1nc2cccc(F)c2c(=O)n1-c1ccccc1
Outgoing: 6

###

test system: HEK-293T; test: Multiplex assay against HEK293T; assay type: toxicity, cell-based; details: human, 12 h, 10 µM, compound concentration 10 uM, replicate 2
Below: a set of entries, each annotated with reported Population Pyknosed Nuclei (%).
Returns: string containing the numeric result and its unit.

Worked cases, answers included:
>>> reported_measurement("CCCCN(CC)c1nc(C)nc2c1c(C)cn2-c1c(C)cc(C)cc1C.Cl")
"54%"
>>> reported_measurement("Cc1c(Nc2ccc(S(=O)(=O)N3CCN(C)CC3)cc2F)nc2ccc(Nc3cnn(C4CC4)c3)cn2c1=O")
"4%"
>>> reported_measurement("CC(C)[C@H](CO)Nc1nc(Nc2cccc(Cl)c2)c2ncn(C(C)C)c2n1")
"75%"

Incoming: Given the entry N#Cc1cccc(C(=O)Nc2cc(-c3ccccc3)nn2-c2ccccc2)c1 , report its measured Population Pyknosed Nuclei (%).
Outgoing: 68%

###

system: U2OS; assay: Multiplex assay against U2OS; format: toxicity, cell-based; conditions: human, 12 h, 10 µM, compound concentration 10 uM, replicate 2
Field 'label' (enum: true (1) / false (0)). Set to true (1) when Population Mitotic Cells (%) is strictly under 40%; else false (0).

Record excerpt, results attached:
>>> class("Cc1ccc(NC(=O)Nc2cc(C(F)(F)F)ccc2F)cc1Nc1ccc2c(c1)NC(=O)/C2=C\\c1ccc[nH]1")
"true (1)"
>>> class("C=CC(=O)Nc1cc(-n2c(=O)ccc3cnc4ccc(-c5ccc(NS(C)(=O)=O)cc5)cc4c32)ccc1C")
"true (1)"
>>> class("Oc1cccc(-c2nc(N3CCOCC3)c3oc4ncccc4c3n2)c1 [PI-103]")
"false (0)"
>>> class("Cc1c(Nc2ccc(S(=O)(=O)N3CCN(C)CC3)cc2F)nc2ccc(Nc3cnn(C4CC4)c3)cn2c1=O")
"false (0)"
>>> class("CN1C(=O)[C@@H](NC(=O)c2cc3ccccc3[nH]2)N=C(c2ccccc2)c2ccccc21 [DEVAZEPIDE]")
"false (0)"

Incoming: Dear colleague, could you confirm whether Population Mitotic Cells (%) of CCOc1ccn(-c2ccc(F)cc2)c(=O)c1C(=O)Nc1ccc(Oc2ccnc(N)c2Cl)c(F)c1 [BMS-777607] falls below 40%? Thanks.
Outgoing: false (0)

Incoming: Also check CCCc1cc(C)[nH]c(=O)c1CNC(=O)c1cc(-c2ccc(N3CCN(C(C)C)CC3)nc2)cc2c1cnn2C(C)C
Outgoing: true (1)

Incoming: Also check Cl.Cn1c2c(c3ccc(Cl)c(Cl)c31)C(C#N)C1(CCNCC1)NC2=O (stereo not drawn)
Outgoing: true (1)
